# System: Staphylococcus aureus
# run.description: Minimum inhibitory concentration against Staphylococcus aureus
# Type: functional
metric.name: MIC (µg/mL)
One number for each entry, in µg/mL.

Field: example entries. Status: answers known.
CC(C)[C@@H](C(=O)O)N1Cc2ccccc2C1=O :: 3600
O=C(O)[C@H](CO)N1Cc2ccccc2C1=O :: 3600
C[C@@H](C(=O)O)N1Cc2ccccc2C1=O :: 1620
CCC(C)C(C(=O)O)N1Cc2ccccc2C1=O (stereo not drawn) :: 3600
O=C(O)C[C@@H](C(=O)O)N1Cc2ccccc2C1=O :: 3600
CC(C)CC(C(=O)O)N1Cc2ccccc2C1=O (stereo not drawn) :: 3600
C[C@H](C(=O)O)N1Cc2ccccc2C1=O :: 1620

// below: MIC requested for another molecule
Query :: Supply MIC value. Item: "CC(C)[C@H](C(=O)O)N1Cc2ccccc2C1=O"
Result :: 3600
